- Protocol notes: PPI half-life (serum concentration profile), n of 1 studies
- Format: in vivo, human
- Condition parameters: human, serum, oral, Day 1; given as OME-IR 120 mg+Tenatoprazole IR 40 mg; n of 1
compounds and their reported half-life
# number only, unit h dropped from output

>  <Compound>
COc1ccc2[nH]c([S+]([O-])Cc3ncc(C)c(OC)c3C)nc2n1 (centres unmarked)

>  <half-life, h>
12.9

$$$$

Turning now to a further record.
# return recorded half-life for input COc1ccc2[nH]c([S+]([O-])Cc3ncc(C)c(OC)c3C)nc2c1 (centres unmarked)
1.8

###

- Protocol notes: PPI half-life (serum concentration profile), n of 1 studies
- Type: in vivo, human
- Condition parameters: human, serum, 40 mg, Day 1; 40 mg given alone; n of 1
Measure name: half-life (min)
# number only, unit min dropped from output

# return recorded half-life for input COc1ccc2nc([S@@+]([O-])Cc3ncc(C)c(OC)c3C)[nH]c2c1
84
